Biological target: T1, human LRRC15 extracellular domain with C-terminal His tag (human, UniProt Q8TF66 22-538)
T1 construct: Recombinant, made in HEK293; the entry holds the extracellular domain and the His tag; SPR analyte; also called TPP-1545; hLRRC15 CT-His
T1 sequence: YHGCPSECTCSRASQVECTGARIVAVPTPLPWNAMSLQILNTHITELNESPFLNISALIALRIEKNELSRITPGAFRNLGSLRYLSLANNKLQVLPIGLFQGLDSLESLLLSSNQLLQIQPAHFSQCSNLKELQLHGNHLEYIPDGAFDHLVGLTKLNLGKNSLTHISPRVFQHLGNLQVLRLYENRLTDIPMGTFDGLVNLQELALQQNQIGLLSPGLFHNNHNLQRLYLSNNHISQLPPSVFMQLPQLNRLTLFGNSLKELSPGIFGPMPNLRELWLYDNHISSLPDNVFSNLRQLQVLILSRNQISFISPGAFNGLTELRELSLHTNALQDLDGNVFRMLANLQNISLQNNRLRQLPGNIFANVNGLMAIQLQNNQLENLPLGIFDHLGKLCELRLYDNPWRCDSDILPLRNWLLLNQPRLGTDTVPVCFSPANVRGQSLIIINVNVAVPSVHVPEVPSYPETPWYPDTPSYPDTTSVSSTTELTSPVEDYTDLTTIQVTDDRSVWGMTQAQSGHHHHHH
Experiment: SPR thermodynamics (van't Hoff/Eyring), 10-37°C
Procedure: Thermodynamics help to explain why an interaction is happening and what the driving forces for the interaction are. To assess the thermodynamic parameters for anti-LRRC15 antibodies binding assays were conducted using surface plasmon resonance (SPR). […] Van′t Hoff and Eyring plots were calculated and plotted and thermodynamic parameters were derived.
PROPERTY LABEL: -TΔS (kcal/mol)
Numbers only here, please. The scale is kcal/mol.

Ask | Supply recorded -TΔS for TPP-17078 (antibody, human IgG1, kappa, V domains shown, also called 438H-M308-H05-hIgGkappa) VH: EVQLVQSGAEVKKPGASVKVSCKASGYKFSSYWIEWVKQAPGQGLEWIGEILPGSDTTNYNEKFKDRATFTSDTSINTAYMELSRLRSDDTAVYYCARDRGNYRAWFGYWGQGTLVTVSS VL: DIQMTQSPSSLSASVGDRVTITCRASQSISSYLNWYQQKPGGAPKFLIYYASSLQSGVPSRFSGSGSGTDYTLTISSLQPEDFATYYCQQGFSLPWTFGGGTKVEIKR here.
Reply | 10.3

Ask | Supply recorded -TΔS for TPP-14389 (antibody, human IgG1, kappa, V domains shown, also called 13612-rec02-hIgG1Kappa) VH: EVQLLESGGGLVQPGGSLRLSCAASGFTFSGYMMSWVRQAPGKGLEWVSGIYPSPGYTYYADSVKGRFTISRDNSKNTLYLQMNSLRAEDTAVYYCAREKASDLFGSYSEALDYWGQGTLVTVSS VL: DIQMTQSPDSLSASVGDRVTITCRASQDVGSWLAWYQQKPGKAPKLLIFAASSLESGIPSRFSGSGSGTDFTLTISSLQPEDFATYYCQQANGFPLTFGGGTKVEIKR here.
Reply | 19.4

Ask | Supply recorded -TΔS for TPP-12942 (antibody, human IgG1, kappa, V domains shown, Prior art humanized IgG1 kappa antibody, used as comparator; also called huM25; huM25-hIgG1Kappa) VH: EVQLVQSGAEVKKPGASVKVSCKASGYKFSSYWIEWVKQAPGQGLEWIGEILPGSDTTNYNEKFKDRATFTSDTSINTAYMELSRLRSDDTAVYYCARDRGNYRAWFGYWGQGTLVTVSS VL: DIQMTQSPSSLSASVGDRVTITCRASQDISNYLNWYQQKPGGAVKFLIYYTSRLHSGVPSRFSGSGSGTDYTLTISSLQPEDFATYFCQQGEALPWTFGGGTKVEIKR here.
Reply | 6.69
